System: NCI-H522 lung
run description: NCI-60 one-dose screen, 48 h (100 = growth as untreated, 0 = no growth, -100 = all killed)
condition: 10 µM unless noted
The panel holds about 83,000 compounds, 20% with a hit somewhere; the sample as a whole holds those more often.
Checkbox rule: growth lower than 20% = Criterion met; growth not lower than 20% = Criterion not met.

Look over these answered cases.
compound: N#CC1=C(/N=C/c2ccccc2)Oc2c(ccc3ccccc23)C1c1ccccc1 (stereo not given)
assigned category: Criterion met
//
compound: COc1ccc(-c2nc(SCC(=O)Nc3nc(-c4ccccc4)cs3)[nH]c(=O)c2C#N)cc1
assigned category: Criterion not met
//
compound: O=C1/C(=C/c2ccc(Br)cc2)C=C(c2ccccc2)N1CCc1ccccc1
assigned category: Criterion not met

Threshold test, growth < 20%: COc1ccc(C2C(c3nn[nH]n3)=C(N)Oc3c2ccc2ccccc32)cc1 (stereo not given)
Criterion not met

Now consider Cc1cccc(Cc2cnc(NC(=O)/C=C/c3ccco3)s2)c1 .
Criterion met

Do the same for COCCc1ccc(OCC(O)CNC(C)C)cc1 (stereo not given) please
Criterion not met

Check Cc1ccc(Nc2nc(N)nc(CSCC(=O)NN)n2)cc1 too.
Criterion not met

Next entry: Cc1cc(=O)[nH]c(N=Nc2c(O)[nH]c3ccccc23)n1
Criterion not met

And then COc1cccc(C(=O)NCCCNc2cc(-c3cn(-c4ccccc4)nc3-c3cccc(OC)c3)ccn2)c1 , what is it?
Criterion not met

* * *

Test system: NCI-H522 lung
run description: NCI-60 one-dose screen, 48 h (100 = growth as untreated, 0 = no growth, -100 = all killed)
condition: 10 µM unless noted
The panel holds about 83,000 compounds, 20% with a hit somewhere; the sample as a whole holds those more often.
growth reference
All answers are understood in %, so give the number only.

A selection of reference data follows.
compound: Cc1cc(NCc2cc(Nc3ccnc4cc(Cl)ccc34)ccc2F)nc(N2CCN(c3ccccc3)CC2)n1
growth (%): 45.6
--
compound: C=CCNc1nc(NN2C(=O)c3cccc4cccc(c34)C2=O)nc(-n2cnc3ccccc32)n1
growth (%): 76.6
--
compound: CCOC(=O)C/C(C)=N\NC(=O)c1ccncc1
growth (%): 95.3

Next compound, growth to be filled in.
Can you look up the measured growth of N#Cc1c(N2CCNCC2)nc2sc3cc(Cl)c(Cl)cc3n2c1=N for me?
67.3

* * *

System: SF-268 CNS
run description: NCI-60 one-dose screen, 48 h (100 = growth as untreated, 0 = no growth, -100 = all killed)
condition: 10 µM unless noted
The panel holds about 83,000 compounds, 20% with a hit somewhere; the sample as a whole holds those more often. The source made the active and inactive calls. Rule for the calls: active = growth percent below 10; inactive = the rest.
Reported growth values for a set of compounds

compound: COc1ccc(C(=O)Nn2c(NCC(=O)N3c4ccccc4Sc4ccccc43)nnc2-c2ccc(O)cc2)cc1
growth: 111% (inactive)

Sample O=C(/C=C/c1c(Cl)nc2sccn12)c1ccc(F)c(F)c1 — what was its growth?
81.4% (inactive)

Here is the next compound: COc1ccc(-c2nc3sccn3c2-c2cc(-c3cc(OC)c(OC)c(OC)c3)on2)cc1
98.2% (inactive)

Same question for COc1cc(C(=O)/C=C/c2c(C(F)(F)F)nc3sccn23)cc(OC)c1OC please.
16.1% (inactive)

Would you mind doing CC(CN1CCCCC1)C(=O)c1ccccc1 (stereo not given) as well?
99.9% (inactive)

Reference for the values: PubChem BioAssay (NCI)
